tgt: T1, Human Alpha-1 antitrypsin (AAT) (human, UniProt P01009 25-418)
T1 construct: Pure AAT in buffer, as used in the isotherm and breakthrough studies; also called α-1 antitrypsin; human AAT
protocol_text: static adsorption isotherm, pure AAT in PBS pH 7.4, Langmuir fit
pKd: −log10 of the molar value. No end group written: not given here.
value_kind: pKd

(A) KHAWIFG-{Toyopearl AF‑Amino‑650M resin} (not fully specified; printed as KHAWIFG-Toyopearl) [KHAWIFG-Toyopearl]
(B) KAWFKHWNG-{Toyopearl AF‑Amino‑650M resin} (not fully specified; printed as KAWFKHWNG-Toyopearl) [KAWFKHWNG-Toyopearl]
Prompt: Sorting ascending by pKd, which comes first: A or B ? Use the label to indicate which entry you chose.
Response: A
(A: 5.85, B: 6.06)
